assay.target: p-glycoprotein (Homo sapiens, UniProt P08183)
Construct: Multidrug-resistant and -sensitive cells of the T-lymphoblastoid leukemia cell lines CCRF-VCR 1000 and CCRF-CEM are withdrawn from the cell culture; endogenous in cells; CCRF-CEM (sensitive)
Sequence (P08183 whole entry): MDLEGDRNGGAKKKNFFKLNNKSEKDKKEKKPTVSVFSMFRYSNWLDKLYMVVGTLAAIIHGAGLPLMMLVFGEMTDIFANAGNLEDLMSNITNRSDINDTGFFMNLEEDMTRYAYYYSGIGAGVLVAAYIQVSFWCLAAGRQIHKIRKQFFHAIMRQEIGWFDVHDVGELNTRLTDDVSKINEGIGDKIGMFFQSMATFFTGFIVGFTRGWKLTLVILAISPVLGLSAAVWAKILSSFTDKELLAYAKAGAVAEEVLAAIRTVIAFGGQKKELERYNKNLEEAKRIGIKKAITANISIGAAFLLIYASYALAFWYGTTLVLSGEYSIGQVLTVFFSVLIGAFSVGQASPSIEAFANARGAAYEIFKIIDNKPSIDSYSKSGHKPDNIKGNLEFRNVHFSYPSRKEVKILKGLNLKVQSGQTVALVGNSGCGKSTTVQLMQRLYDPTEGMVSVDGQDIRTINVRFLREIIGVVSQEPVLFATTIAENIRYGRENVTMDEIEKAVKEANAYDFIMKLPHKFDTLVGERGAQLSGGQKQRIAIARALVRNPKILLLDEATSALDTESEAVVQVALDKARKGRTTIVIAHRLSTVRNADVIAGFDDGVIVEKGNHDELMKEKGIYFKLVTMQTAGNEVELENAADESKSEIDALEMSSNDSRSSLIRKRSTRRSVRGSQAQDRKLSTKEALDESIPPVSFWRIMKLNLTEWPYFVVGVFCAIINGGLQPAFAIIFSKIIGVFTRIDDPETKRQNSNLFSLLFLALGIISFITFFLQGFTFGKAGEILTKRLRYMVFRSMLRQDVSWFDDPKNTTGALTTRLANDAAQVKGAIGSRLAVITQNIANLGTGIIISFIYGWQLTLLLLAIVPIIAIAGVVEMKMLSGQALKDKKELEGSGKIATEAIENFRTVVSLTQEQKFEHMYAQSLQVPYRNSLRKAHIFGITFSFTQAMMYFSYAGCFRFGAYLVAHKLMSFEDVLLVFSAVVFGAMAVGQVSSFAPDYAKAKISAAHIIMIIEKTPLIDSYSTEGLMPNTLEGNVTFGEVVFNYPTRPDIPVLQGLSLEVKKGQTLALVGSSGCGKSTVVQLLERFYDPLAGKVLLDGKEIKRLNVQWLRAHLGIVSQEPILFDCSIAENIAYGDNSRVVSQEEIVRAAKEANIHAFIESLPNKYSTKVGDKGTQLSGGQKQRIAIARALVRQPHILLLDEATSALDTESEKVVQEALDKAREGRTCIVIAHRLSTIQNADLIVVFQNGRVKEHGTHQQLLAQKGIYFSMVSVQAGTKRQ
run.description: Measurement of P-glycoprotein inhibition (Rhodamine 123 accumulation)
Method: Multidrug-resistant and -sensitive cells of the T-lymphoblastoid leukemia cell lines CCRF-VCR 1000 and CCRF-CEM are withdrawn from the cell culture and harvested by centrifugation. The cells are taken up in RPMI medium (pH=7.3) without fetal calf serum and incubated at 37° C. for 30 min with the rising concentrations of resistance modulators. […] The excitation wavelength is 488 nm. The number of the investigated compounds correspond to the numbers in the examples.

| smiles.input | readout.unit | EC50 |
| --- | --- | --- |
| Cc1nc2nc(C)n(CCN3CCCCC3)c(=O)c2c(-c2cccc([N+](=O)[O-])c2)c1C(=O)CCCCCCCN1CCC(c2ccccc2)(c2ccccc2)CC1 | nM | 50.1 |
| CCCCn1cnc2nc(C)c(C(=O)CCCCCCCCCCN3CCC(c4ccccc4)(c4ccccc4)CC3)c(-c3cccc([N+](=O)[O-])c3)c2c1=O | nM | 15.8 |
| CCCn1c(C)nc2nc(C)c(C(=O)CCCCCCCN3CCC(c4ccccc4)(c4ccccc4)CC3)c(-c3cccc([N+](=O)[O-])c3)c2c1=O | nM | 50.1 |
| Cc1nc2ncn(-c3ccccc3)c(=O)c2c(-c2cccc([N+](=O)[O-])c2)c1C(=O)CCCCCCCCCCN1CCC(c2ccccc2)(c2ccccc2)CC1 | nM | 63.1 |
| CCCCn1c(C)nc2nc(C)c(C(=O)CCCCCCCN3CCC(c4ccccc4)(c4ccccc4)CC3)c(-c3cccc([N+](=O)[O-])c3)c2c1=O | nM | 31.6 |
| CCCn1cnc2nc(C)c(C(=O)CCCCCCCN3CCC(c4ccccc4)(c4ccccc4)CC3)c(-c3cccc([N+](=O)[O-])c3)c2c1=O | nM | 25.1 |
